assay: in vitro; conditions: African green monkey, CC50 (CellTiter 96 Aqueous One)
measured-metric: CC50 (µM)

* OC(c1cc(C(F)(F)F)nc2c(C(F)(F)F)cccc12)C1CCCCN1 (centres unmarked) | 29.1
* C[C@@H]1C[C@H]2[C@@H]3CCC4=CC(=O)C=C[C@]4(C)[C@@]3(F)[C@@H](O)C[C@]2(C)[C@@]1(O)C(=O)CO | 55.7

* * *

Entries and their measured Reduction in LASV MG-directed ZsGreen expression levels vs vehicle control follow.
target: LASV vRNP (UniProt P13699+Q6GWS6); type: cell-based
Sequence (P13699 whole entry, looked up): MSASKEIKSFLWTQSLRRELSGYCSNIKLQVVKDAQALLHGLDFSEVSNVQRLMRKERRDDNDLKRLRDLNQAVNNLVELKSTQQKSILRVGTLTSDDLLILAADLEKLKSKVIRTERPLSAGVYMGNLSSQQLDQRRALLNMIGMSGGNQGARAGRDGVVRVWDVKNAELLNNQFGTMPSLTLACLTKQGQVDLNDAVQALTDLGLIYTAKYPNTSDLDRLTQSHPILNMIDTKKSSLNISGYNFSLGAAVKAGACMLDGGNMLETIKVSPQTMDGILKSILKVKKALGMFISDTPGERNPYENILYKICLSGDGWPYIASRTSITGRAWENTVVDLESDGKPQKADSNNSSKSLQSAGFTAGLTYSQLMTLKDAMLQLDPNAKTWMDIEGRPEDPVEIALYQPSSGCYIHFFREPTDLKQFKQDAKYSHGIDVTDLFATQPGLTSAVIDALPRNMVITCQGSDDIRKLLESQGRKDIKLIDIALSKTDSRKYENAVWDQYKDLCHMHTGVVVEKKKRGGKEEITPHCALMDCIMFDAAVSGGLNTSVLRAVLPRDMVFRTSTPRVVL
Sequence (Q6GWS6 whole entry, looked up): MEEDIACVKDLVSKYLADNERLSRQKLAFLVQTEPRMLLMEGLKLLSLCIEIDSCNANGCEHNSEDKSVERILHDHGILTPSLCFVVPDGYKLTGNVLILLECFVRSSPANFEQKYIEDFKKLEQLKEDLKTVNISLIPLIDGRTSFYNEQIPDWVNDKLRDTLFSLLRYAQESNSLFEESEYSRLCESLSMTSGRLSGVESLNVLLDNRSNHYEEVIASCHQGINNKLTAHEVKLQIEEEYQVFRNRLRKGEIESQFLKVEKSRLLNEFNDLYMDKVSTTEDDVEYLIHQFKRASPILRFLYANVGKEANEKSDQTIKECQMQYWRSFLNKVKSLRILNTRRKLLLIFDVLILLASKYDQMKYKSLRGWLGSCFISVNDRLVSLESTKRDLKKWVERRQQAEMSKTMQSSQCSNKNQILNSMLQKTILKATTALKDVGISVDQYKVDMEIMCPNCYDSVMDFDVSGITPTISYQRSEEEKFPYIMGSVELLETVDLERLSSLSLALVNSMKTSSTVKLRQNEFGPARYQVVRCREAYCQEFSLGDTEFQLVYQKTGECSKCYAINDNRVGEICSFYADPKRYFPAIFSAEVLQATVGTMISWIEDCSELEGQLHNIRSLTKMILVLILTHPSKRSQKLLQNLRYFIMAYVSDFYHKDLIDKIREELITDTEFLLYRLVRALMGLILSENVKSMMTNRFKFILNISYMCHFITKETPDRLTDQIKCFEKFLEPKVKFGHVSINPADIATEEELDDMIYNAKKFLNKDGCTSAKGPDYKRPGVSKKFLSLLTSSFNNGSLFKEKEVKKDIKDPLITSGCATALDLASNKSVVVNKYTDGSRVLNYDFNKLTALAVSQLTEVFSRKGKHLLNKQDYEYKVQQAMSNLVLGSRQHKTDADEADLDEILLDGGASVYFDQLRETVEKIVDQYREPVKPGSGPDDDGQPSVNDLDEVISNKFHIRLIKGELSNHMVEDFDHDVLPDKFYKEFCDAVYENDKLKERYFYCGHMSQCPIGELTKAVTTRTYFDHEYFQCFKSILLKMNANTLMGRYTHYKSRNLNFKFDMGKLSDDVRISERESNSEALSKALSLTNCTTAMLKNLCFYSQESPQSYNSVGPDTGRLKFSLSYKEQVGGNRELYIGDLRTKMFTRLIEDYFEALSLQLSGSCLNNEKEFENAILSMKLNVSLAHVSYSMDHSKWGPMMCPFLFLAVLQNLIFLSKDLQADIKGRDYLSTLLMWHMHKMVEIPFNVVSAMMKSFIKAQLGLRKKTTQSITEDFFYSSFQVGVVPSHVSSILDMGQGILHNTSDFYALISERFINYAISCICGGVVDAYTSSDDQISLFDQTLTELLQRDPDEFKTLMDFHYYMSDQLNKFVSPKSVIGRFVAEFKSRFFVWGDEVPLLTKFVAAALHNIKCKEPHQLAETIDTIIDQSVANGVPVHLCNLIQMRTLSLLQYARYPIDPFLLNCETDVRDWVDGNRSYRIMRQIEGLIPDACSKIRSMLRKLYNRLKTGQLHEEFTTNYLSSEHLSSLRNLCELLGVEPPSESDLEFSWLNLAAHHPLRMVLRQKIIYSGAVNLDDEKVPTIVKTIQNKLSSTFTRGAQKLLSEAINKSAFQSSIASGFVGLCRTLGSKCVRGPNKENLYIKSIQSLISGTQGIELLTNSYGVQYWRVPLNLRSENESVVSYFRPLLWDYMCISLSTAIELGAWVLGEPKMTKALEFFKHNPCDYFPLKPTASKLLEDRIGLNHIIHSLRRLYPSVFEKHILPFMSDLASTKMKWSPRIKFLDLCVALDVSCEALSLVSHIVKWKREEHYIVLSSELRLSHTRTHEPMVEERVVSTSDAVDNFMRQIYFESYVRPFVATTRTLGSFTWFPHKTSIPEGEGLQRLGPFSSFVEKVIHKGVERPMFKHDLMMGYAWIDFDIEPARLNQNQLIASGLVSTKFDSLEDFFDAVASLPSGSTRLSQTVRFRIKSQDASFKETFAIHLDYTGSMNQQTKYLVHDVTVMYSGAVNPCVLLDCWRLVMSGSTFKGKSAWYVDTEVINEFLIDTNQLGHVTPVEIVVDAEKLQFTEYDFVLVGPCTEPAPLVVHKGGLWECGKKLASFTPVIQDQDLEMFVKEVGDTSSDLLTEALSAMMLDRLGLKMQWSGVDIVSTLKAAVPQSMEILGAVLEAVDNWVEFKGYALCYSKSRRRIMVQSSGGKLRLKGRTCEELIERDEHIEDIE
measured-metric: Reduction in LASV MG-directed ZsGreen expression levels vs vehicle control

* Fc1ccc(C(c2ccc(F)cc2)N2CCN(C/C=C/c3ccccc3)CC2)cc1 | ~ 50%
* CN1CC(=O)N2[C@H](c3ccc4c(c3)OCO4)c3[nH]c4ccccc4c3C[C@@H]2C1=O | ~ 12%
* C[C@@H]1C[C@H]2[C@@H]3CCC4=CC(=O)C=C[C@]4(C)[C@@]3(F)[C@@H](O)C[C@]2(C)[C@@]1(O)C(=O)CO | ~ 28%
* OC(c1cc(C(F)(F)F)nc2c(C(F)(F)F)cccc12)C1CCCCN1 (centres unmarked) | 5%
* C=C1CC[C@H](O)C/C1=C/C=C1\CCC[C@]2(C)[C@@H]([C@H](C)/C=C/[C@H](C)C(C)C)CC[C@@H]12 | ~ 18%
